Target: LpxC (Klebsiella pneumoniae subsp. pneumoniae, UniProt A6T4N9)
Sequence (A6T4N9 whole entry): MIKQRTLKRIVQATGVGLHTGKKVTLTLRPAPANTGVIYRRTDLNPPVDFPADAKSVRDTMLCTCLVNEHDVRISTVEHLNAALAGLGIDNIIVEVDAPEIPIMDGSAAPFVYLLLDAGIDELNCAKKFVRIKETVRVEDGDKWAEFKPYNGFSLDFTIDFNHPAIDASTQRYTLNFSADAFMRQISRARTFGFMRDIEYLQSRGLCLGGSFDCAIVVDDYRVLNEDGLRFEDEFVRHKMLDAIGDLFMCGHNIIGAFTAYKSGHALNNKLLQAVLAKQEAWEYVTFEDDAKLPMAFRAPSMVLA
Experiment: Inhibition assay against Klebsiella pneumonae LpxC (LC-MS/MS)
Type: biochemical
Settings: LpxC 0.2 nM Kpn, 22° C., 60 minutes
readout kind: IC50

1. O=C(c1ccc(C#CC#Cc2ccc(NCc3occc(=O)c3O)cc2)cc1)N1CCOCC1 = 10 to 100 nM
2. O=c1ccoc(CNc2ccc(C#CC#Cc3ccc(CN4CCOCC4)cc3)cc2)c1O = 10 to 100 nM
3. CNC(=O)c1ccc(C#CC#Cc2ccc(NCc3oc(CS(C)(=O)=O)cc(=O)c3O)cc2)cc1 = > 100 nM
4. O=c1ccoc(CNc2ccc(C#CC#Cc3ccccc3)cc2)c1O = > 100 nM
5. O=C(O)c1ccc(C#CC#Cc2ccc(NCc3occc(=O)c3O)cc2)cc1 = > 100 nM
6. CNC(=O)c1ccc(C#CC#Cc2ccc(NCc3occc(=O)c3O)cc2)cc1 = > 100 nM
7. O=C(c1ccc(C#CC#Cc2ccc(NCc3occc(=O)c3O)cc2)cc1)N1CC(O)C1 = 10 to 100 nM
8. CN1CCN(C(=O)c2ccc(C#CC#Cc3ccc(NCc4occc(=O)c4O)cc3)cc2)CC1 = 10 to 100 nM

* * *

A collection of compounds and their measured MIC
System: S. aureus ATCC 29213
Assay: Bacterial susceptibility testing (MIC, broth microdilution)
Type: cell-based
Conditions: Staphylococcus aureus, ATCC29213, read-out: MIC S. aureus ATCC 29213
readout kind: MIC

1) CS(=O)(=O)Cc1cc(=O)c(O)c(COc2ccc(C#Cc3ccccc3)cc2)o1 = 8 to 32 µg/mL
2) CNC(=O)c1ccc(-c2ccc(OCc3oc(CS(C)(=O)=O)cc(=O)c3O)cc2)cc1 = > 32 µg/mL
3) CS(=O)(=O)Cc1cc(=O)c(O)c(COc2ccc(C#CC#Cc3ccccc3)cc2)o1 = 1 to 8 µg/mL
4) CNC(=O)C#CC#Cc1ccc(NCc2oc(CS(C)(=O)=O)cc(=O)c2O)cc1 = > 32 µg/mL
5) CS(=O)(=O)Cc1cc(=O)c(O)c(CNc2ccc(C#CC#Cc3ccccc3)cc2)o1 = > 32 µg/mL
6) CNC(=O)c1ccc(C#CC#Cc2ccc(NCc3oc(CS(C)(=O)=O)cc(=O)c3O)cc2)cc1 = > 32 µg/mL
7) CNC(=O)c1ccc(-c2ccc(CCc3oc(CS(C)(=O)=O)cc(=O)c3O)cc2)cc1 = > 32 µg/mL
